Kindly supply the reported IC50 values for the records listed here.
Biological target: recombinant full-length WRN protein (1-1432) (Homo sapiens, UniProt Q14191)
Construct: recombinant full-length WRN protein (1-1432)
Sequence (Q14191 whole entry): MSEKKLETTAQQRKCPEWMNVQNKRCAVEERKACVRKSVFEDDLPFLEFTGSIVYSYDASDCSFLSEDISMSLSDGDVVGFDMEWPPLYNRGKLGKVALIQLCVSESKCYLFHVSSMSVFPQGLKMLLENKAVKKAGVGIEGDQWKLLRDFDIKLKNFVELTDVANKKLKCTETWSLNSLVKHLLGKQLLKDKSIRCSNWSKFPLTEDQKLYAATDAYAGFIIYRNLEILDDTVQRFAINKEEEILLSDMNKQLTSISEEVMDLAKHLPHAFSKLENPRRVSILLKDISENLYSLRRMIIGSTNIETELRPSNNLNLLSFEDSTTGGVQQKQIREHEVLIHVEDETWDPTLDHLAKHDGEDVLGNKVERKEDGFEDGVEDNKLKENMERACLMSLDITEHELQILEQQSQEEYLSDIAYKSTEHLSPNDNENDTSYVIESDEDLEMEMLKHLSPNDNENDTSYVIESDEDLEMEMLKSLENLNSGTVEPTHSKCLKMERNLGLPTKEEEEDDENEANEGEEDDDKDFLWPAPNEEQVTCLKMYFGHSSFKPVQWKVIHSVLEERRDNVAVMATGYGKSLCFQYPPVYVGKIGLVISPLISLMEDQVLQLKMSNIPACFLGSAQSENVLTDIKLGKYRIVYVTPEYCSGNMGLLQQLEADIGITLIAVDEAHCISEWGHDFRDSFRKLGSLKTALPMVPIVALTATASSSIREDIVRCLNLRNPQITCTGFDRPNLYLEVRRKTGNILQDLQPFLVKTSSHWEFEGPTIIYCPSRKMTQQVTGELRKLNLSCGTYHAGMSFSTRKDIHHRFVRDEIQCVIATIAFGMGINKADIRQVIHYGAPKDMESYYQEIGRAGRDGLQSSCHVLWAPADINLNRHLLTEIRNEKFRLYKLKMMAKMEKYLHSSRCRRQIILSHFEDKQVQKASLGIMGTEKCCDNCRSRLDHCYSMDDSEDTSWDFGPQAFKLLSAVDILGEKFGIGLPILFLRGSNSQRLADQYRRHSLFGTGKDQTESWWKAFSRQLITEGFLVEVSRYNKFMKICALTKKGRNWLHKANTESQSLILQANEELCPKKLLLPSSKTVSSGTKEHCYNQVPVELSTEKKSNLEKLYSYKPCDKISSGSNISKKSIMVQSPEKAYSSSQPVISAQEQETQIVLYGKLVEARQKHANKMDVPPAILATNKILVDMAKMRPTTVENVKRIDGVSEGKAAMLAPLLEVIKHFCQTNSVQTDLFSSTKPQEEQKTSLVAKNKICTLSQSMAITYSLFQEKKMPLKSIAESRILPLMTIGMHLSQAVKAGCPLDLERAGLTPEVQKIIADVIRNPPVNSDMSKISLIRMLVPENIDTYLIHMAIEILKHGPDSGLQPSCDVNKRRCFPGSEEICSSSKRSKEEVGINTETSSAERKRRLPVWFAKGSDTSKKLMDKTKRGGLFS
Experiment: WRN unwinding activity, fluorogenic 384-well assay (Example A)
Type: biochemical
Settings: WRN unwinding activity, 4 hr; Table 2; read-out: 4 hr UNW pIC50 (converted)

O=C(O)[C@@H]1[C@@H](c2ccc(N3CCCCC3)cc2)CCC[C@H]1C(=O)Nc1ccc(C(F)(F)F)cc1F (racemic) has a reported IC50 of 501 nM

"CCO[C@@H]1C[C@H](c2ccc(N(C)S(=O)(=O)c3cnc4c(c3)nc(C)n4C)cc2)[C@@H](C(=O)O)[C@H](C(=O)Nc2ccc(C(F)(F)F)cc2F)C1" has a reported IC50 of 3.16 nM

Cc1nc2cc(S(=O)(=O)N(C)c3ccc([C@H]4CCC[C@@H](CN(C)C5CCOCC5)[C@@H]4C(=O)O)cc3)ccc2n1C (racemic) has a reported IC50 of 100000 nM
